I'd appreciate it if you could supply Fu values for the items below.
# TEST DETAILS: Percent of unbound ligand in male rat at 1 mg/kg, iv and po
# Type: ADME, organism-based
# Parameters: dose 1 mg/kg, route oral
# CONDITION DESCRIPTION: in vivo
The reply should be a number in %, with the unit left off.

# get_value(readout='Fu', item= `CCC[C@H](CC1(C(=O)NC2(CO)Cc3ccccc3C2)CCCC1)C(=O)O` ) 24.3

Given the entry `CCC[C@H](CC1(C(=O)Nc2nnc(CC)s2)CCCC1)C(=O)O` , report its measured Fu. 10.6

----------
# TEST DETAILS: Apparent permeability from apical to basolateral side of the Caco-2 cell membrane at pH 7.4 at 25 uM
# Assay type: ADME, cell-based
# CONDITION DESCRIPTION: human, Caco-2, pH 7.4
Give measured Papp A→B at 25 µM for each item. Keep answers brief.

Suppose we examine the compound `CCC[C@H](CC1(C(=O)Nc2nnc(CC)s2)CCCC1)C(=O)O` ; what Papp A→B at 25 µM value has been reported? 9 ×10⁻⁶ cm/s

If you can, please state the reported Papp A→B at 25 µM value of `CCC[C@H](CC1(C(=O)NC2(CO)Cc3ccccc3C2)CCCC1)C(=O)O` . 6 ×10⁻⁶ cm/s

Data request, read-out Papp A→B at 25 µM, for `CCC[C@H](CC1(C(=O)Nc2nnc(C)s2)CCCC1)C(=O)O` < 1 ×10⁻⁶ cm/s

----------
# TEST DETAILS: Apparent permeability from basolateral to apical side of the Caco-2 cell membrane at pH 7.4 at 25 uM
# Format: ADME, cell-based
# CONDITION DESCRIPTION: human, Caco-2, pH 7.4
REPORTED PROPERTY: Papp B→A at 25 µM (×10⁻⁶ cm/s)
State just the number; it will be interpreted in ×10⁻⁶ cm/s.

Given `CCC[C@H](CC1(C(=O)NC2(CO)Cc3ccccc3C2)CCCC1)C(=O)O` , state its recorded Papp B→A at 25 µM. 10

# query: Papp B→A at 25 µM of entry `CCC[C@H](CC1(C(=O)Nc2nnc(C)s2)CCCC1)C(=O)O` 2

Papp B→A at 25 µM for `CCC[C@H](CC1(C(=O)Nc2nnc(CC)s2)CCCC1)C(=O)O` ? 14

----------
Assign Tmax to each entry below.
# TEST DETAILS: Tmax in male rat at 1 mg/kg, iv and po
# Format: ADME, organism-based
# Design: dose 1 mg/kg, route oral
# CONDITION DESCRIPTION: in vivo
# output: bare number, implied unit min

// lookup Tmax for `CCC[C@H](CC1(C(=O)NC2(CO)Cc3ccccc3C2)CCCC1)C(=O)O` 15

Entry under review: `CCC[C@H](CC1(C(=O)Nc2nnc(CC)s2)CCCC1)C(=O)O` . Reported Tmax? 60

Returns the measured Tmax for the input compound. Input: CCCC(CC1(C(=O)NC2(CO)Cc3ccccc3C2)CCCC1)C(=O)O (racemic) 15
